Read-out: Apoptosis regulator Bcl-2 (Homo sapiens)
Assay: LTEA_HepaRG_BCL2: Life Technologies and Expression Analysis (LTEA) Assay for Bcl-2 gene using HepaRG (AID 2283475);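 also: BCL2 transcript by TaqMan qRT-PCR normalised to ACTB GAPDH and POLR2A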
Details: mRNA level, 48 h; actives raise or lower the signal
Method: LTEA_HepaRG is a cell based, multiplexed-readout assay that uses HepaRG, a human liver cell line, with measurements taken at 48 hours after chemical dosing on a 96-well plate.LTEA_HepaRG_BCL2 is one of 102 assay component(s) measured in the LTEA HepaRG cell culture assay. It is a marker of Cell proliferation, survival, death.Data from the assay component LTEA_HepaRG_BCL2 was analyzed into 1 endpoint. […]
Calls of active or inactive are those of the source. The calls were made as follows: active = hit-call score of the fitted dose curve at least 0.9, where 1 is the maximum; inactive = score below 0.9.
quantity: AC50

Past entries and their recorded results:
Fc1ccccc1[C@@H](F)COC1CCC(Nc2ncnc3[nH]ncc23)CC1 (stereo partly specified) | 30.7 µM (active)
Cc1c(-c2cccnc2)c2ccccc2n1CCCCC(=O)O | inactive
Clc1nc(Cl)c(Cl)c(Cl)c1Cl | inactive
COC(=O)c1ccccc1O | inactive
CC[C@H]1CC[C@H](NCc2cc3c(cc2OC)[C@H]2C[C@H]2C(=O)N3C)[C@H](c2ccccc2)N1 | inactive

Turning now to a further record.
Req: Give the measured AC50 of `Cc1ccc(N)cc1O` .
Resp: inactive

----------
target: AR (gene 367); test: ACEA_AR_agonist_80hr: ACEA Biosciences xCELLigence Real-Time Cell Analysis on Androgen Receptor Agonism for Proliferation (AID 2283783);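 also: hits increase impedance growth signal above DMSO baseline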
Records with an inconclusive call do not appear. Activity calls are given as the source filed them. The calls were made as follows: active = hit-call score of the fitted dose curve at least 0.9, where 1 is the maximum; inconclusive = response in the unintended direction; inactive = score below 0.9.
Write down one outcome, taken from true = active, false = inactive

Answered cases to consult:
Oc1ccc2c(c1)-c1ccccc1C2 | false
Cc1ccc(N)cc1O | false
CCCN(C1CCN(C(=O)C2CCNCC2)CC1)[C@@H]1CCc2ccc(OC)cc2C1 | false
O=C(CCCCCCCCc1cccnc1)N1CCC(C=C(c2ccccc2)c2ccccc2)CC1 | false
CC(C)=CCC/C(C)=C\CO | false

Req: Check the results log: what was the call for `CN(C)c1ccc(N=NS(=O)(=O)O)cc1` ?
Resp: true

Req: And for CCCCC(CC)COC(=O)c1ccc(C(=O)OCC(CC)CCCC)cc1 (configuration not stated) ?
Resp: false

----------
experiment: ATG_AP_1_CIS: Attagene CIS-FACTORIAL HepG2 Assay for human Activator Protein 1 (AP-1) (AID 2282931); conditions: HepG2 Attagene cis-factorial AP-1 reporter mRNA; actives raise or lower the signal
Activity calls are given as the source filed them. Rule for the calls: active = hit-call score of the fitted dose curve at least 0.9, where 1 is the maximum; inactive = score below 0.9.
Write down one outcome, taken from True for active, False for inactive

Answered cases to consult:
Cn1c(=O)c2c(ncn2C)n(C)c1=O | False
CCNc1ccccc1 | False
CCCCC(CC)COC(=O)c1ccc(C(=O)OCC(CC)CCCC)cc1 (configuration not stated) | False

Req: Check the results log: what was the call for `CCOc1cccc(-n2cc(C(=O)N3CCN(c4cc(C(=O)O)c5ccccc5c4)CC3)nc2-c2ccc(C)cc2)c1` ?
Resp: True

Req: And for `Cn1cnc([N+](=O)[O-])c1Sc1ncnc2nc[nH]c12` ?
Resp: True

Req: And for `CCOCCOCCOCCO` ?
Resp: False

Req: And for `CCCCCCCCO` ?
Resp: False

----------
read-out: CYP2C8 (gene 1558); experiment: LTEA_HepaRG_CYP2C8: Life Technologies and Expression Analysis (LTEA) Assay for CYP2C8 using HepaRG (AID 2283483); settings: mRNA level, 48 h; actives raise or lower the signal
Activity calls are given as the source filed them. How the source made its calls: active means hit-call score of the fitted dose curve at least 0.9, where 1 is the maximum; inactive means score below 0.9.
Write down one outcome, taken from 1 = active, 0 = inactive

Answered cases to consult:
COC(=O)c1ccccc1O | 0
O=C(CCCCCCCCc1cccnc1)N1CCC(C=C(c2ccccc2)c2ccccc2)CC1 | 1
CC(O)CN(CCN(CC(C)O)CC(C)O)CC(C)O (configuration not stated) | 1
COc1ccc(/C=C/S(=O)(=O)NC(=O)c2ccc(C)cc2Cl)cc1 | 0
O=C(O)CCN(C1(C(=O)NO)CCCC1)S(=O)(=O)c1ccc(Oc2ccc(F)cc2)cc1 | 0
C[C@](N)(Cc1ccc(O)c(O)c1)C(=O)O | 0

Req: Check the results log: what was the call for `CCCCCCCCO` ?
Resp: 0
